Type: physicochemical
Details: HPLC on reversed phase columns, method [a]: pH 2.7, 0.1% formic acid in water / acetonitrile, linear gradient 10% to 95% acetonitrile
Collected log P values appear next to each entry.

Q) Quick one: log P for CCn1cc(CNC(=O)C2(C)CC(c3ccc4ncc(Br)cc4c3)=NO2)c(Br)n1 (centres unmarked) [compound 636] ?
A) 2.86[a]

Q) Quick one: log P for C#Cc1cnc2ccc(C3=NOC(C)(C(=O)NCc4nc(C)cs4)C3)cc2c1 (centres unmarked) [compound 648] ?
A) 2.26[a]

Continuing:
Q) Quick one: log P for C#CC1(C(=O)NCCCOCC)CC(c2ccc3ncc(Br)cc3c2)=NO1 (centres unmarked) [compound 627] ?
A) 2.94[a]

Q) Quick one: log P for CC1(C(=O)NC(COc2ccc(F)cc2)C2CC2)CC(c2ccc3ncc(Br)cc3c2)=NO1 (centres unmarked) [compound 315] ?
A) 3.99[a]

Q) Quick one: log P for CC1(C)OCC(CNC(=O)C2(C(F)F)CC(c3ccc4ncc(I)cc4c3)=NO2)O1 (centres unmarked) [compound 618] ?
A) 3.06[a]

Q) Quick one: log P for CCn1cc(CNC(=O)C2(C(C)=O)CC(c3ccc4ncc(Br)cc4c3)=NO2)c(C)n1 (centres unmarked) [compound 585] ?
A) 2.53[a]

Q) Quick one: log P for C#Cc1cnc2c(Cl)cc(C3=NOC(OC)(C(=O)NCC4COC(C)(C)O4)C3)cc2c1 (centres unmarked) [compound 589] ?
A) 2.82[a]

Q) Quick one: log P for COC1(C(=O)NC(C)C)CC(c2cc(Cl)c3ncc(Br)cc3c2)=NO1 (centres unmarked) [compound 569] ?
A) 3.15[a]

====

Collected % of efficacy (protection) values appear next to each entry.
Test system: Septoria tritici
Assay: In vivo preventive test on Septoria tritici (leaf spot on wheat)
Settings: 500 ppm; wheat plants sprayed 24 hours before contamination; grading 21 to 28 days after contamination vs control plants
Value expressed in %; do not type the unit.

Recorded results for 2 compounds are shown here.
Q) Fill in the recorded % of efficacy (protection) for this compound, with Septoria tritici as test system: C=CC1(C(=O)NCCCOCC)CC(c2ccc3ncc(I)cc3c2)=NO1 (stereo not drawn)
A) 100

Q) Fill in the recorded % of efficacy (protection) for this compound, with Septoria tritici as test system: C#Cc1cnc2ccc(C3=NOC(C)(C(=O)NCc4cnn(CC)c4C)C3)cc2c1 (stereo not drawn)
A) 100

Continuing:
Q) Fill in the recorded % of efficacy (protection) for this compound, with Septoria tritici as test system: C#CC1(C(=O)NC(C)C)CC(c2ccc3ncc(Br)cc3c2)=NO1 (stereo not drawn)
A) 100

Q) Fill in the recorded % of efficacy (protection) for this compound, with Septoria tritici as test system: CC(C)NC(=O)C1(C)CC(c2ccc3ncccc3c2)=NO1 (stereo not drawn)
A) 71

Q) Fill in the recorded % of efficacy (protection) for this compound, with Septoria tritici as test system: C#Cc1cnc2ccc(C3=NOC(C)(C(=O)NCc4noc(C)n4)C3)cc2c1 (stereo not drawn)
A) 71

Q) Fill in the recorded % of efficacy (protection) for this compound, with Septoria tritici as test system: CCOCCCNC(=O)C1(CC)CC(c2ccc3ncc(Br)cc3c2)=NO1 (stereo not drawn)
A) 97

====

Collected chromatographic logP values appear next to each entry.
Assay type: physicochemical
Conditions: pH 2.7
Field format: numeric only.

Q) Quick one: chromatographic logP for CC(C)NC(=O)C1(C)CC(c2ccc3ncc(I)cc3c2)=NO1 (stereo not shown) ?
A) 2.88

Q) Quick one: chromatographic logP for CCOCCCNC(=O)C1(C(F)F)CC(c2ccc3ncc(Br)cc3c2)=NO1 (stereo not shown) ?
A) 3.06

Q) Quick one: chromatographic logP for COC(=O)C1(C)CC(c2ccc3ncc(Cl)cc3c2)=NO1 (stereo not shown) ?
A) 2.58

Could you now look at the following compound, please?
Q) Quick one: chromatographic logP for COC(=O)C1(C)CC(c2ccc3ncc(I)cc3c2)=NO1 (stereo not shown) ?
A) 2.71

====

Format: physicochemical
Details: reversed phase HPLC column; HPLC reversed phase, pH 2.7, 0.1% formic acid in water / acetonitrile, linear gradient 10% to 95% acetonitrile; calibration with alkan-2-ones; read-out: log P (HCOOH)
attribute measured: chromatographic logP
Field format: numeric only.

Recorded results for 2 compounds are shown here.
Q) Quick one: chromatographic logP for O/N=C/c1ccc2ncc(Cl)cc2c1 ?
A) 1.78

Q) Quick one: chromatographic logP for O/N=C(\Cl)c1ccc2ncc(Cl)cc2c1 ?
A) 1.96

Continuing:
Q) Quick one: chromatographic logP for CCn1cc(CNC(=O)C23OCCCC2C(c2ccc4ncc(Br)cc4c2)=NO3)c(C)n1 (stereo not drawn) ?
A) 2.59

Q) Quick one: chromatographic logP for O=Cc1ccc2ncc(I)cc2c1 ?
A) 2.12

Q) Quick one: chromatographic logP for O/N=C(\Cl)c1ccc2ncc(I)cc2c1 ?
A) 2.63

Q) Quick one: chromatographic logP for O/N=C/c1ccc2ncc(I)cc2c1 ?
A) 1.98

Q) Quick one: chromatographic logP for O=Cc1ccc2ncc(Cl)cc2c1 ?
A) 1.96

Q) Quick one: chromatographic logP for O=Cc1ccc2ncc(Br)cc2c1 ?
A) 2.08

Q) Quick one: chromatographic logP for CC(C)NC(=O)C1(C)CC(c2ccc3ncc(-c4ccccc4)cc3c2)=NO1 (stereo not drawn) ?
A) 3.02

====

Collected log P values appear next to each entry.
Type: physicochemical
Conditions: HPLC on reversed phase columns, method [a]: pH 2.7, 0.1% formic acid in water / acetonitrile, linear gradient 10% to 95% acetonitrile

Recorded results for 6 compounds are shown here.
Q) Quick one: log P for COC1(C(=O)NC2CCC2)CC(c2cc(C)c3ncc(Br)cc3c2)=NO1 (stereo not drawn) [compound 603] ?
A) 3.58[a]

Q) Quick one: log P for Cc1cnc2ccc(C3=NOC(C)(C(=O)NC(C)C)C3)cc2c1 (stereo not drawn) [compound 260] ?
A) 1.63^[a]

Q) Quick one: log P for CC(C)c1noc(C(C)NC(=O)C2(C)CC(c3ccc4ncc(Br)cc4c3)=NO2)n1 (stereo not drawn) [compound 331] ?
A) 3.23[a]

Q) Quick one: log P for COC1(C(=O)NCc2cnc(C)cn2)CC(c2cc(C)c3ncc(Br)cc3c2)=NO1 (stereo not drawn) [compound 596] ?
A) 2.78[a]

Q) Quick one: log P for C#Cc1cnc2ccc(C3=NOC(C)(C(=O)NC(C)c4nn(C)c(=O)n4C)C3)cc2c1 (stereo not drawn) [compound 352] ?
A) 1.76[a]

Q) Quick one: log P for CC1(C(=O)NCc2csc3ccc(Cl)cc23)CC(c2ccc3ncc(Br)cc3c2)=NO1 (stereo not drawn) [compound 241] ?
A) 4.21^[a]

Continuing:
Q) Quick one: log P for C#Cc1cnc2c(C)cc(C3=NOC(OC)(C(=O)NCc4cn(CCC)nc4C)C3)cc2c1 (stereo not drawn) [compound 610] ?
A) 2.90[a]

Q) Quick one: log P for Cc1nn(C2CCC2)cc1CNC(=O)C1(C)CC(c2ccc3ncc(Br)cc3c2)=NO1 (stereo not drawn) [compound 633] ?
A) 2.92[a]

Q) Quick one: log P for C#Cc1cnc2ccc(C3=NOC(C)(C(=O)NCc4ncccc4OC)C3)cc2c1 (stereo not drawn) [compound 645] ?
A) 2.01[a]

====

Collected Log P values appear next to each entry.
Conditions: Table 2, formula (II); method [a]: pH 2.7, 0.1% formic acid in water / acetonitrile gradient

Recorded results for 2 compounds are shown here.
Q) Quick one: Log P for C#Cc1cc2cc(C3=NOC(C)(C(=O)OC)C3)ccc2nc1Cl (stereo not shown) ?
A) 3.01[a]

Q) Quick one: Log P for CC1(C(=O)O)CC(c2ccc3ncc(Br)cc3c2)=NO1 (racemic) ?
A) 1.94[a]

Continuing:
Q) Quick one: Log P for N#CC1(C(=O)O)CC(c2ccc3ncc(Br)cc3c2)=NO1 (stereo not shown) ?
A) 1.42[a]

Q) Quick one: Log P for C#Cc1cnc2c(Cl)cc(C3=NOC(OC)(C(=O)O)C3)cc2c1 (stereo not shown) ?
A) 1.95[a]

====

Collected log P values appear next to each entry.
Type: physicochemical
Settings: HPLC on reversed phase columns, method [a]: pH 2.7, 0.1% formic acid in water / acetonitrile, linear gradient 10% to 95% acetonitrile

Recorded results for 3 compounds are shown here.
Q) Quick one: log P for C#Cc1cnc2c(Cl)cc(C3=NOC(C)(C(=O)NCc4cn(CC)nc4C)C3)cc2c1 (stereo not drawn) [compound 550] ?
A) 2.53[a]

Q) Quick one: log P for CCOCCCNC(=O)C1(C(F)F)CC(c2ccc3ncc(I)cc3c2)=NO1 (stereo not drawn) [compound 619] ?
A) 3.19[a]

Q) Quick one: log P for C#Cc1cnc2c(Cl)cc(C3=NOC(OC)(C(=O)NC(C)C)C3)cc2c1 (stereo not drawn) [compound 590] ?
A) 2.84[a]

Continuing:
Q) Quick one: log P for CN1C(C)(C)CC(NC(=O)C2(C)CC(c3ccc4ncc(Br)cc4c3)=NO2)CC1(C)C (stereo not drawn) [compound 240] ?
A) 1.47^[a]

Q) Quick one: log P for CCOCCCNC(=O)C1(C(C)O)CC(c2ccc3ncc(Br)cc3c2)=NO1 (stereo not drawn) [compound 560] ?
A) 2.27[a]

Q) Quick one: log P for C#CC1(C(=O)NCc2cnc(C)cn2)CC(c2ccc3ncc(Br)cc3c2)=NO1 (stereo not drawn) [compound 628] ?
A) 2.41[a]

Q) Quick one: log P for C#Cc1cnc2ccc(C3=NOC(C)(C(=O)NC(C)C4CC4)C3)cc2c1 (stereo not drawn) [compound 330] ?
A) 2.78[a]

Q) Quick one: log P for CCn1cc(CNC(=O)C2(F)CC(c3ccc4ncc(Br)cc4c3)=NO2)c(C)n1 (stereo not drawn) [compound 279] ?
A) 2.38[a]
